Set-up: unit not given beside the values
Condition Set: rat, in vivo
Metric: AUC(0→t)

Below: 5 compounds and their reported AUC(0→t).
> print(dat)
                                   compound   reported
1  CC(CO)C1=C(O)c2ccc3c(c2C(=O)C1=O)CCCC3(C)C (stereo not drawn)     269.12
2  Cc1cc(O)c2c(c1)C(=O)c1cc(C(=O)O)cc(O)c1C2=O  406691.82
3  COc1ccc2c(c1OC)O[C@H]1c3ccc(O)cc3OC[C@@H]21       3.73
4  CCCCOC(=O)c1ccccc1C(=O)OCCCC [P49, Dibutyl phthalate]     542.84
5  CCCCCCCCCCCCCCCC(=O)OC[C@@H](O)COP(=O)([O-])OCC[N+](C)(C)C  149276.86

1. Cc1cc(O[C@@H]2O[C@H](CO)[C@@H](O)[C@H](O)[C@H]2O)cc2oc(CC(C)O)cc(=O)c12 (stereo partly drawn)
2. COc1cc2c(=O)c(-c3ccc(O)cc3)coc2cc1O[C@@H]1O[C@H](CO)[C@@H](O)[C@H](O)[C@H]1O
3. COc1cccc2c1C(=O)c1c(O)cc(C)cc1C2=O
4. Cc1cc(O)c2c(c1)C(=O)c1cccc(O)c1C2=O
Thanks in advance: please rank these 4 entries by AUC(0→t), highest to lowest. Returns: the labels arranged in the requested order.
4, 3, 2, 1

----------
Procedure Text: in vivo
Condition Set: male, Sprague-Dawley, rat, po
Metric: MRT last (h)
Give the quantity in h, number only.

> print(dat)
                                   molecule  unit.info  reported
1  CCCCOC(=O)c1ccccc1C(=O)OCCCC [P49, Dibutyl phthalate]          h      12.1
2  CCCCCCCCCCCCCCCC(=O)OC[C@@H](O)COP(=O)([O-])OCC[N+](C)(C)C          h      10.2

What value of measured MRT last is listed for Cc1cc(O)c2c(c1)C(=O)c1cccc(O)c1C2=O ?
4.89

----------
Procedure Text: Multi-compound pharmacokinetics of ZJTSD in rat serum, semi-quantitative UPLC-Q/TOF-MS (peak area ratio versus time, non-compartmental)
Condition Set: metabolites of ZJTSD in rat serum; mean±SD, n=3; in h
Metric: Tmax

I. O=C(O)/C=C/c1ccc(O)cc1
II. O=CCC(O)(CC(=O)O)C(=O)O (stereo not shown)
Could you point out whether the larger Tmax belongs to I or to II ? Returns: label corresponding to the selected item.
I
(I: 1.58, II: 1.08)

a. COC(=O)c1ccc(O)cc1
b. OC1COCC1O (stereo not shown)
Choose between a and b : whose measured Tmax value is numerically larger? Pick one and reply with its label.
a
(a: 3.00, b: 1.17)

----------
Procedure Text: Multi-compound pharmacokinetics of ZJTSD in rat serum, semi-quantitative UPLC-Q/TOF-MS (peak area ratio versus time, non-compartmental)
Condition Set: metabolites of ZJTSD in rat serum; mean±SD, n=3; in h
Metric: MRT(0→t)

Some compounds with recorded MRT(0→t):
> print(dat)
                                   compound    metric  reported
1              O=C(O)/C=C/c1ccc(O)cc1 [M91]  MRT(0→t)      3.97
2  O=CCC(O)(CC(=O)O)C(=O)O (stereo not shown) [M90]  MRT(0→t)      7.25

a. COC(=O)c1ccc(O)cc1 [M89]
b. OC1COCC1O (stereo not shown) [M87]
Choose between a and b : whose measured MRT(0→t) value is numerically larger? Returns: label corresponding to the selected item.
b
